The measured values listed here are drawn from ChEMBL document CHEMBL1201862.

Please provide measured GI50 for the entries that follow.
System: NCI-H522
Test: NCI tumour cell line growth inhibition, 48 h
Activity calls are given as the source filed them. No stated cut-off is given here; in the data, active = GI50 up to about 1.1 µM and inactive = higher.

According to the records, this compound COC(=O)C1=CON2C3CC4CC(C3)CC(C4)C12C (stereo unspecified) displays GI50 of > 100 µM (inactive)

According to the records, this compound O=C1NC(=O)C(C(=O)C(=O)Nc2cccc(C(F)(F)F)c2)C(=O)N1 displays GI50 of > 100 µM (inactive)

According to the records, this compound CN(C(=O)c1ccco1)C(=S)N1CCN(c2ccccc2)CC1 displays GI50 of > 100 µM (inactive)

According to the records, this compound N#CC1(C#N)C2C=CC(C3CCC=C32)C1(C#N)C#N (stereo unspecified) displays GI50 of 2.96 µM (inactive)

According to the records, this compound Cc1nnc2sc(-c3ccc([N+](=O)[O-])o3)nn12 displays GI50 of 3.03 µM (inactive)

According to the records, this compound Cc1nc2ccc(C(F)(F)F)cc2nc1NCc1ccc(Cl)c(Cl)c1 displays GI50 of 14.8 µM (inactive)

According to the records, this compound N#CCC(=O)N/N=C(/C(=O)Nc1ccccc1)C1C(=O)N(c2ccccc2)N=C1N (stereo unspecified) displays GI50 of > 100 µM (inactive)

According to the records, this compound COCO[C@@H]1C[C@H]2C(=O)N(COC)c3ccccc3C(=O)N2C1 displays GI50 of > 100 µM (inactive)

According to the records, this compound Cc1c2cc(Cl)ccc2n2c(=O)c3ccccc3[nH]c(=O)c12 displays GI50 of > 100 µM (inactive)

According to the records, this compound O=C(c1cccs1)N(C(=S)OC12CC3CC(CC(C3)C1)C2)c1ccccc1 displays GI50 of 17.2 µM (inactive)

According to the records, this compound CSc1nc(C#N)c(/N=C\N(C)C)n1C displays GI50 of > 100 µM (inactive)
